Cited source for all entries: ChEMBL document CHEMBL1154397

Tested Target: Protein kinase C theta type (Homo sapiens, UniProt Q04759)
Sequence (Q04759 whole entry): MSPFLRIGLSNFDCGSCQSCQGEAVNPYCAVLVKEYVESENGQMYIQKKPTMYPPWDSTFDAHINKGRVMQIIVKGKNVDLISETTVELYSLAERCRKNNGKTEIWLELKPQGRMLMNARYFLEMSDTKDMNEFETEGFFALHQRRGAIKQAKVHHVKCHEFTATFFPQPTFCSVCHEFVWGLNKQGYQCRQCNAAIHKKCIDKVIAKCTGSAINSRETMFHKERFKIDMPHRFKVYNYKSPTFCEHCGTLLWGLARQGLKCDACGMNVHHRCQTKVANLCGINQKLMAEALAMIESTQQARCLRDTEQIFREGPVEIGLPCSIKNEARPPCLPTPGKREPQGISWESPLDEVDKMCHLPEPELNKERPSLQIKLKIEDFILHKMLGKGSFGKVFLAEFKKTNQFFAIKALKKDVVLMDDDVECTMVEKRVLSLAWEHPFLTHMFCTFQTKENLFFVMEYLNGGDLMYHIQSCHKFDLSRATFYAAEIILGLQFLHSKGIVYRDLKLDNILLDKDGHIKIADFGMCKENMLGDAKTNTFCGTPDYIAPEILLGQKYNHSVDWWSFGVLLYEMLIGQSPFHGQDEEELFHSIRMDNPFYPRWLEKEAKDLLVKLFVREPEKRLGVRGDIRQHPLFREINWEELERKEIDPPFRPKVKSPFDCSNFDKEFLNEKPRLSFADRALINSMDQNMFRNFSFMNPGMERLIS
pIC50: −log10 of the molar value.
Quantity Name: pIC50

Reading of pIC50 for O[C@H]1CC[C@H](c2[nH]ncc2-c2ccnc(NC3CCCC3)n2)CC1 with Protein kinase C theta type (Homo sapiens, UniProt Q04759): < 4.52

* * *

Tested Target: Mitogen-activated protein kinase 13 (Homo sapiens, UniProt O15264)
Sequence (O15264 whole entry): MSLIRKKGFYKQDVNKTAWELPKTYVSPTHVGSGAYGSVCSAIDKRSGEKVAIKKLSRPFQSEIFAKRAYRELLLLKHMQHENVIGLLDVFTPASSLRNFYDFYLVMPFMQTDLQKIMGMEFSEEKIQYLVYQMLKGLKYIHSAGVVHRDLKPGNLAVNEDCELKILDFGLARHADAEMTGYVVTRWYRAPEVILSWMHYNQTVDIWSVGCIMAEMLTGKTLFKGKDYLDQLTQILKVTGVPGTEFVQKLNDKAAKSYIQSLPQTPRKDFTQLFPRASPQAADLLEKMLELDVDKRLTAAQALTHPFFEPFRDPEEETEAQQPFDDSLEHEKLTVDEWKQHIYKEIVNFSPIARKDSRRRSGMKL
Experimental Protocol: Inhibition of SPAK4
Quantity Name: pIC50
In textbook form, pIC50 equals minus log to base ten of the concentration in mol/L.

Reading of pIC50 for O[C@H]1CC[C@H](c2[nH]ncc2-c2ccnc(NC3CCCC3)n2)CC1 with Mitogen-activated protein kinase 13 (Homo sapiens, UniProt O15264): 5.92

* * *

Tested Target: Mitogen-activated protein kinase 14 (Homo sapiens)
Sequence (Q16539 whole entry): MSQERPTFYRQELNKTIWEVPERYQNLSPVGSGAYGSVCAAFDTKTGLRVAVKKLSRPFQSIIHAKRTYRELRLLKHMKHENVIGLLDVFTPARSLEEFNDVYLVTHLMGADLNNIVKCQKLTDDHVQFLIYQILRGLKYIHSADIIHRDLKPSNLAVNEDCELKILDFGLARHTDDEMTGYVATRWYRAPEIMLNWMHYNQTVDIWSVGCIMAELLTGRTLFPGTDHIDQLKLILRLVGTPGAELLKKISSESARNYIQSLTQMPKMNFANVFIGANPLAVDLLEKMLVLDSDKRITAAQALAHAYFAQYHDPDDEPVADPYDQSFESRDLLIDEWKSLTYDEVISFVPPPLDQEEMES
Experimental Protocol: Inhibition of SAPK2a
Quantity Name: IC50

Reported IC50 ( O[C@H]1CC[C@H](c2[nH]ncc2-c2ccnc(NC3CCCC3)n2)CC1 ) = > 30 µM

* * *

Tested Target: Insulin receptor (Homo sapiens, UniProt P06213)
Sequence (P06213 28-758 limits assumed): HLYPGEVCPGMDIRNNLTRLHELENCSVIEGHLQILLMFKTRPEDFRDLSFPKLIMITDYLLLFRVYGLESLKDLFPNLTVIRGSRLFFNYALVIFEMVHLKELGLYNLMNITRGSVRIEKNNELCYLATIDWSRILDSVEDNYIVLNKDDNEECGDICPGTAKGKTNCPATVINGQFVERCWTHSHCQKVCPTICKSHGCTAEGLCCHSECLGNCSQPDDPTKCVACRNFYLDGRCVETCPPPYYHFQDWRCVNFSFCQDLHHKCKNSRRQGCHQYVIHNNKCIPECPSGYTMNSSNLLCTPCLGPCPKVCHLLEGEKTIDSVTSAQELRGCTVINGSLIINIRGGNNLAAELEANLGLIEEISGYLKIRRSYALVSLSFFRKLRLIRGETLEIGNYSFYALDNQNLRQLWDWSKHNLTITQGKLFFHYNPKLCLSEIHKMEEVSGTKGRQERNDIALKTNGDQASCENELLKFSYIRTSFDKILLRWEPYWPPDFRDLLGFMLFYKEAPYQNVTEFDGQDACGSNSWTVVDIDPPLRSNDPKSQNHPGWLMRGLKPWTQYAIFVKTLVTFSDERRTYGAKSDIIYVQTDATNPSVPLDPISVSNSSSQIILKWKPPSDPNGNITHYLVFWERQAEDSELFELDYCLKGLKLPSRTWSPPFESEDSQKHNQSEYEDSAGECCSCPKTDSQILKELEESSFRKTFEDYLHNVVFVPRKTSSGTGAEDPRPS
Sequence (P06213 763-1382 limits assumed): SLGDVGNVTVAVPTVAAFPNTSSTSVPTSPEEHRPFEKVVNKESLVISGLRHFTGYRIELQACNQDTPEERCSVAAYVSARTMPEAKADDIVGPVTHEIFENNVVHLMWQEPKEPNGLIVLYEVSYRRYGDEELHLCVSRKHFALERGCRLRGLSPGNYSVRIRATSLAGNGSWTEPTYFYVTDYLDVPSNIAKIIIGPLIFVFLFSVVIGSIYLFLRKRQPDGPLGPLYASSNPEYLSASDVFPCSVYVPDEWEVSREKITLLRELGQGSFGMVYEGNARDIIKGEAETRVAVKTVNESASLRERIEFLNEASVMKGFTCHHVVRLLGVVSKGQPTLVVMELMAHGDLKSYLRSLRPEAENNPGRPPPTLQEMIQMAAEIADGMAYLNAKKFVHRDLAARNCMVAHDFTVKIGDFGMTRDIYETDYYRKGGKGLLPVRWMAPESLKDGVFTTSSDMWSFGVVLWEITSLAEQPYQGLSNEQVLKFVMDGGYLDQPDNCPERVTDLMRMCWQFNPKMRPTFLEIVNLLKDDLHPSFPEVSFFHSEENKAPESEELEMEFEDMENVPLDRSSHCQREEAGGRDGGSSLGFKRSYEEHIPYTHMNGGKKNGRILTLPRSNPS
pIC50: −log10 of the molar value.
Quantity Name: pIC50

Reported pIC50 ( O[C@H]1CC[C@H](c2[nH]ncc2-c2ccnc(NC3CCCC3)n2)CC1 ) = < 4.52

* * *

Tested Target: c-Jun N-terminal kinase, JNK (Homo sapiens, UniProt P45983+P53779+P45984)
Experimental Protocol: Inhibition of TNF-alpha-induced phosphorylation of […] in human HepG2 cells
Format: cell-based
Recorded measurements of IC50, one per entry
Answer format: numeric, nM implied, no suffix.

{"columns": ["Compound", "IC50, nM"],
 "data": [
  ["CC(C)Nc1nccc(-c2c[nH]nc2-c2ccc(Cl)cc2)n1", 920],
  ["CC(=O)N[C@H]1CC[C@H](c2n[nH]cc2-c2ccnc(NC3CCCC3)n2)CC1", 299],
  ["Cc1ccc(-c2n[nH]cc2-c2ccnc(NC3CCN(C)CC3)n2)cn1", 6020],
  ["OC1CCCC(c2n[nH]cc2-c2ccnc(NC3CCCC3)n2)C1 (centres undefined)", 209],
  ["CS(=O)(=O)N[C@H]1CC[C@H](c2n[nH]cc2-c2ccnc(NC3CCCC3)n2)CC1", 114]
]}

Reading of IC50 for Clc1ccc(-c2n[nH]cc2-c2ccnc(NC3CCCC3)n2)cc1 with c-Jun N-terminal kinase, JNK (Homo sapiens, UniProt P45983+P53779+P45984): 460

Reading of IC50 for c1cc(-c2cn[nH]c2C2CCCOC2)nc(NC2CCCC2)n1 (centres undefined) with c-Jun N-terminal kinase, JNK (Homo sapiens, UniProt P45983+P53779+P45984): 245

Reading of IC50 for Clc1ccc(-c2n[nH]cc2-c2ccnc(NC3CC3)n2)cc1 with c-Jun N-terminal kinase, JNK (Homo sapiens, UniProt P45983+P53779+P45984): 840

Reading of IC50 for CC(C)Nc1nccc(-c2cn[nH]c2C2CCCCO2)n1 (centres undefined) with c-Jun N-terminal kinase, JNK (Homo sapiens, UniProt P45983+P53779+P45984): 3500

Reading of IC50 for CC(C)Nc1nccc(-c2c[nH]nc2C2CCOCC2)n1 with c-Jun N-terminal kinase, JNK (Homo sapiens, UniProt P45983+P53779+P45984): 814

Reading of IC50 for Clc1ccc(-c2n[nH]cc2-c2ccnc(NC3CCCCC3)n2)cc1 with c-Jun N-terminal kinase, JNK (Homo sapiens, UniProt P45983+P53779+P45984): 1100

Reading of IC50 for CC(C)Nc1nccc(-c2c[nH]nc2C2CCCOC2)n1 (centres undefined) with c-Jun N-terminal kinase, JNK (Homo sapiens, UniProt P45983+P53779+P45984): 357

Reading of IC50 for O[C@H]1CC[C@H](c2n[nH]cc2-c2ccnc(NC3CCCC3)n2)CC1 with c-Jun N-terminal kinase, JNK (Homo sapiens, UniProt P45983+P53779+P45984): 98

Reading of IC50 for CC(C)Nc1nccc(-c2cn[nH]c2C2CCN(S(C)(=O)=O)CC2)n1 with c-Jun N-terminal kinase, JNK (Homo sapiens, UniProt P45983+P53779+P45984): 221
